# System: Plasmodium berghei
# EXPERIMENT: Screen against P. berghei liver stage (PbLuc), transformed with Luciferase, at 10uM
# Format: functional, HepG2
# EXPERIMENTAL CONDITIONS: tested at 10 uM
Out of some 69,000 compounds screened, about 8,600 (12%) showed an effect of 50% or more. What follows is part of a selection rich in strong results, with near analogues and random picks from the rest.

| COMPOUND | INHIBITION (%) |
| --- | --- |
| CCCn1cc(-c2cc(-c3c[nH]cn3)c(C#N)c(N)n2)c(C)n1 | -8.47 |
| COc1ccccc1N1CCN(C(=O)CCn2nnnc2C)CC1(C)C | 51.8 |
| COc1ccc(C(=O)NCCCOC(C)c2ccccc2)c(OC)c1 (stereo unspecified) | 84.4 |
| COc1ccc(N2CCN(C(=O)CCn3nnnc3C)CC2(C)C)cc1 | -34.8 |
| CCC(=O)NCCc1cc2nc(-c3ccncc3)ccn2n1 | 21.4 |
| COc1ccccc1N1CCN(C(=O)Cn2nccc2C)CC1(C)C | -56.6 |
| COc1ccccc1CN(C)C(=O)NCc1c(C)cc(C)[nH]c1=O | -13.3 |
| CCCn1cc(-c2cc(-c3cc(CC)n[nH]3)c(C#N)c(N)n2)c(C)n1 | 64.5 |
| CCc1c(C)nc2cc(C3CCN(Cc4ccccc4F)C3)nn2c1O (stereo unspecified) | 85.9 |
| Cc1nonc1C(=O)N1CCCC(c2ncncc2-c2ccncc2)C1 (stereo unspecified) | 42.1 |
| Cn1ccnc1CN(CCO)Cc1ccc(C(F)(F)F)cc1 | 29.8 |
| c1cnc(-c2nc(CN3CCCC3Cn3cncn3)cs2)nc1 (stereo unspecified) | 27.6 |
| CC(C)N1CCCC1c1cc(C(F)(F)F)[nH]n1 (stereo unspecified) | -7.7 |
| COc1ccc(C(=O)NCCCNc2ncccn2)c(OC)c1 | 30.8 |
| CN(CCCc1ccc(C(F)(F)F)cc1)Cc1nccn1C | 66.8 |
| O=C(CN1CCc2ccccc2C1)NCc1cc2n(n1)CCCNC2 | -16.8 |
| COC(=O)c1cccc2nc([C@H]3CCN(Cc4ccccc4F)C3)oc12 | -61.5 |
| CN(C)CC1(O)CCCN(C(=O)CCn2cc(Cl)cn2)C1 (stereo unspecified) | -47 |
| Cc1nc(C)c(CN2CCOC[C@H](Oc3ccccc3)C2)s1 | 71.4 |
| Fc1ccccc1CN1CCC(c2n[nH]c(C3CC3)n2)CC1 | -5.92 |
| COc1ccccc1N1CCN(C(=O)CCn2ccnc2C)CC1(C)C | 6.31 |
| COCCC(=O)N(C)CCC1=CCN(C)CC1 | -6.274 |
| COCC(=O)N1CCO[C@H]2[C@H](OC)CC[C@@H]21 | 50 |
| CC(C)CC(=O)N1CCCn2cnc(CNS(C)(=O)=O)c2C1 | -3.33 |
| Cc1ccc(C(=O)N2CCC[C@@H]2Cn2nnc3c(O)nc(C)nc32)cc1 | 23.4 |
| CCO[C@H]1CC[C@H]2[C@@H]1OCCN2C(=O)COc1ccccc1 | 62 |
| c1cc2c(cc1-n1nc(C3CC3)nc1-c1csnn1)OCCO2 | 27.2 |
| Cc1cc(C(=O)O)c2c(Br)cccc2n1 | 8.7 |
| CC(C)(C)CC(=O)NCC(=O)Nc1ccn(Cc2ccccc2)n1 | 21.6 |
| COc1ccccc1N1CCN(C(=O)CCn2ccc(C)n2)CC1(C)C | 8.48 |
| CS(=O)(=O)NC[C@]12COC[C@H]1CN(C(=O)C1CCCCC1)C2 | 13.6 |
| COCCn1ccc(=O)c(OCC(=O)Nc2ccc(OC)c(Cl)c2)c1C | -38 |
| CO[C@H]1CC[C@H]2[C@H]1OCCN2C(=O)c1nn(C)c2ccccc12 | 47.4 |
| O=C(CCc1ccccc1)N1C[C@@H]2CN(Cc3ccoc3)CCO[C@@H]2C1 | 29.9 |
| Cc1nc2cc(C3CCN(Cc4ccccc4F)C3)nn2c(O)c1C (stereo unspecified) | 61.7 |
| Cc1nc2cc(C3CCN(Cc4cccc(F)c4F)C3)nn2c(O)c1C.O=C(O)CC(O)(CC(=O)O)C(=O)O (stereo unspecified) | 90.4 |
| O=C(Cc1ccccc1)N1CCOC(c2nc(-c3ncccn3)no2)C1 (stereo unspecified) | -20.2 |
| COc1ccc(CNCC2CN(C3CC3)CCO2)cc1OC (stereo unspecified) | -13.6 |
| CN(Cc1noc(C2CC2)n1)C1CCN(Cc2cccc(F)c2F)C1 (stereo unspecified) | -31.96 |
| O=C(CN1CCCC(Cn2cncn2)C1)NCc1ccccc1F (stereo unspecified) | 19.4 |
| CN1CCN(C(=O)N2CCC3(CCCN(C4CCOCC4)C3=O)C2)CC1 (stereo unspecified) | -1.15 |
| COc1ccc(CN(C(=O)C2CCOCC2)c2ccncc2)cc1 | 1.7 |
| Cc1cc(O)n(-c2ccccc2Cl)c(=O)c1C#N | 50.4 |
| Cc1nccc(CNC(=O)NCCC(=O)N2CCCc3ccccc32)n1 | -15 |
| CCS(=O)(=O)NC[C@]12COC[C@H]1CN(CCc1ccccc1)C2 | -58.7 |
| Cc1oc(C)c(C(=O)NCc2cccnc2)c1C | -8.75 |

Origin of measurements: ChEMBL document CHEMBL4513216
